Reported Bliss excess values follow for various compounds
Tested on: PA-TU-8902 (Pancreatic Carcinoma);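 further: after 72 h of two-drug dosing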
Assay: Bliss excess, mean over the matrix (fraction); higher = more synergy
Answer field: number only, no words.

CC1(C)CCC(CN2CCN(c3ccc(C(=O)NS(=O)(=O)c4ccc(NCC5CCOCC5)c([N+](=O)[O-])c4)c(Oc4cnc5[nH]ccc5c4)c3)CC2)=C(c2ccc(Cl)cc2)C1 [Venetoclax] + C[C@@H](Nc1cc(F)cc(F)c1)c1cc(C(=O)N(C)C)cc2c(=O)cc(N3CCOCC3)oc12 [AZD8186] (first compound max 1 µM, 7x7, partner max 3 µM) ... -0.0453

Consider the record given below.
Lookup result for COc1cc2c(cc1OCCCCCOc1cc3c(cc1OC)C(=O)N1C=C(C)C[C@H]1C=N3)N=C[C@@H]1CC(C)=CN1C2=O [SG3199] + O=C(c1cc(Cc2n[nH]c(=O)c3ccccc23)ccc1F)N1CCN(C(=O)C2CC2)CC1 [Olaparib] (first compound max 0.001 µM, 7x7, partner max 10 µM) ; measured Bliss excess: -0.0291

----------
Test system: D-392MG (Glioblastoma)
Test: combination Emax (second highest fraction inhibited in the dose matrix, 72 h); higher = more inhibition; extreme values may be limits of the assay
Reported combination Emax values follow for various molecules

Cc1cc2ncnn2cc1Nc1ncc2c(n1)n(C1CCOCC1)c(=O)n2C [AZD7648] + O=C(c1cc(Cc2n[nH]c(=O)c3ccccc23)ccc1F)N1CCN(C(=O)C2CC2)CC1 [Olaparib] (first compound max 10 µM, 7x7, partner max 10 µM) ... 0.144
COc1cccc(OCCCN)c1-c1cc(Nc2cnc(C#N)cn2)n[nH]1 [Prexasertib] + CCc1c2c(nc3ccc(O)cc13)-c1cc3c(c(=O)n1C2)COC(=O)[C@]3(O)CC [SN-38] (first compound max 1 µM, 7x7, partner max 0.3 µM) ... 0.551
CC(=O)c1c(C)c2cnc(Nc3ccc(N4CCNCC4)cn3)nc2n(C2CCCC2)c1=O [Palbociclib] + Cn1cnc2c(F)c(Nc3ccc(Br)cc3Cl)c(C(=O)NOCCO)cc21 [Selumetinib] (first compound max 10 µM, 7x7, partner max 10 µM) ... 0.262
C=CCn1c(=O)c2cnc(Nc3ccc(N4CCN(C)CC4)cc3)nc2n1-c1cccc(C(C)(C)O)n1 [AZD1775] + Nc1ccn([C@@H]2O[C@H](CO)[C@@H](O)C2(F)F)c(=O)n1 [Gemcitabine] (first compound max 1 µM, partner max 0.3 µM) ... 0.597
O=C(c1cc(Cc2n[nH]c(=O)c3ccccc23)ccc1F)N1CCN(C(=O)C2CC2)CC1 [Olaparib] + CC1(C)CCC(CN2CCN(c3ccc(C(=O)NS(=O)(=O)c4ccc(NCC5CCOCC5)c([N+](=O)[O-])c4)c(Oc4cnc5[nH]ccc5c4)c3)CC2)=C(c2ccc(Cl)cc2)C1 [Venetoclax] (first compound max 10 µM, 7x7, partner max 1 µM) ... 0.114
Cc1cc2ncnn2cc1Nc1ncc2c(n1)n(C1CCOCC1)c(=O)n2C [AZD7648] + CN(C)CCCOc1ccc(-c2ccc3ncc4c(c3c2)n(C2CCOCC2)c(=O)n4C)cn1 [AZD0156] (first compound max 10 µM, 7x7, partner max 1 µM) ... 0.301
Cc1cc2ncnn2cc1Nc1ncc2c(n1)n(C1CCOCC1)c(=O)n2C [AZD7648] + C=CCn1c(=O)c2cnc(Nc3ccc(N4CCN(C)CC4)cc3)nc2n1-c1cccc(C(C)(C)O)n1 [AZD1775] (first compound max 10 µM, partner max 1 µM) ... 0.397
COc1cccc(OCCCN)c1-c1cc(Nc2cnc(C#N)cn2)n[nH]1 [Prexasertib] + CN(C)CCCOc1ccc(-c2ccc3ncc4c(c3c2)n(C2CCOCC2)c(=O)n4C)cn1 [AZD0156] (first compound max 1 µM, 7x7, partner max 1 µM) ... 0.567
CC1(C)CCC(CN2CCN(c3ccc(C(=O)NS(=O)(=O)c4ccc(NCC5CCOCC5)c([N+](=O)[O-])c4)c(Oc4cnc5[nH]ccc5c4)c3)CC2)=C(c2ccc(Cl)cc2)C1 [Venetoclax] + C[C@@H](Nc1cc(F)cc(F)c1)c1cc(C(=O)N(C)C)cc2c(=O)cc(N3CCOCC3)oc12 [AZD8186] (first compound max 1 µM, 7x7, partner max 3 µM) ... 0.139
CC(=O)c1c(C)c2cnc(Nc3ccc(N4CCNCC4)cn3)nc2n(C2CCCC2)c1=O [Palbociclib] + Cc1c2c(nn1C)CSCc1cc(n(C)n1)CSc1cc(c3ccccc3c1)OCCCc1c(C(=O)O)n(C)c3c-2c(Cl)ccc13 [AZD5991] (first compound max 10 µM, 7x7, partner max 1 µM) ... 0.4

Lookup result for Cc1nc(Nc2ncc(C(=O)Nc3c(C)cccc3Cl)s2)cc(N2CCN(CCO)CC2)n1 [Dasatinib] + CC(=O)Nc1cccc(-n2c(=O)n(C3CC3)c(=O)c3c(Nc4ccc(I)cc4F)n(C)c(=O)c(C)c32)c1 [Trametinib] (first compound max 2 µM, 7x7, partner max 1 µM) ; measured combination Emax: 0.627

Lookup result for CN(C)CCCOc1ccc(-c2ccc3ncc4c(c3c2)n(C2CCOCC2)c(=O)n4C)cn1 [AZD0156] + C[C@@H]1COCCN1C2=NC(=NC(=C2)C3(CC3)[S@](=N)(=O)C)C4=C5C=CNC5=NC=C4 [AZD6738] (first compound max 1 µM, 7x7, partner max 10 µM) ; measured combination Emax: 0.374
